measurement.target: T1, PPARγ ligand-binding domain, wild type, His-hPPARγ (231–505) (human, UniProt P37231-1 231-505)
T1 chain: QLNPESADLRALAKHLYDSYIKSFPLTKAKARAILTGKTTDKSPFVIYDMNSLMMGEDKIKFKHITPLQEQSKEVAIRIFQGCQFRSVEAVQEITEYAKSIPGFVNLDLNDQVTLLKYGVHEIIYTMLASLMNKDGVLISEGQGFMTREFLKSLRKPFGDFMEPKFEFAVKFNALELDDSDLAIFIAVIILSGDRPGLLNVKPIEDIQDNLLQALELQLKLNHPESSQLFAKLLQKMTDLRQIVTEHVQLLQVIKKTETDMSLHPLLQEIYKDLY
protocol.text: MST; apo (no ligand)
Ends that are not written are not given here.
endpoint: pKd
Scale for pKd: -log10 of concentration given in mol/L; no unit attached.

Recall and state the measured pKd for EAEEPSLLKKLLLAPA (also: fluorescent label (dye and position not given here), PGC1α (PPARGC1A) residues 137-152, NR1 LXXLL motif; also called fluorescently labeled PGC1α peptide; PGC1α NR1 motif; source: bought: Thermo-Fisher (synthetic peptide)) [fluorescent PGC1α peptide (137-EAEEPSLLKKLLLAPA-152)] . 5.77
